- TEST_TARGET: human B1R receptor (hB1R) (Homo sapiens, UniProt P46663)
- Construct: expressed in transfected cells; host or cells: CHO K1 cells
- Sequence (P46663 1-353): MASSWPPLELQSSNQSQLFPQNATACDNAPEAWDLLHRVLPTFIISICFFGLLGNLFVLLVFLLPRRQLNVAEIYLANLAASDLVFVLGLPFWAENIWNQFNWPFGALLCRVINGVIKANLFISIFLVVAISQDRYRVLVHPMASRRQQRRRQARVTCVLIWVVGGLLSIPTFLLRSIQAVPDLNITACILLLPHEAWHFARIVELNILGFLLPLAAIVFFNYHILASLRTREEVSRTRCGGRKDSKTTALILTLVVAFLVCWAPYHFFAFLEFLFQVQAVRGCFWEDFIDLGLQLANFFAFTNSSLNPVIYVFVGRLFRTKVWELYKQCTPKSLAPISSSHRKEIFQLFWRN
- RUN_DESCRIPTION: Functional investigation on the bradykinin receptor 1 (B1R), FLIPR Ca2+ assay, hB1R cells
- Format: cell-based
Listed here: items and their measured inhibition at 10 µM.

# COMPOUND, ENDPOINT_UNIT, inhibition at 10 µM
rows = [
    ("Cc1cccc(Cl)c1S(=O)(=O)N(C)Cc1nc2cccc(C(=O)N3CCC4(CC3)CCN(c3ccncc3)C4)c2[nH]1", "%", 100),
    ("COc1cc(C)c(S(=O)(=O)N(C)C(C)c2nc3cccc(C(=O)N4CCC5(CC4)CCN(S(=O)(=O)c4ccc(F)cc4F)CC5)c3[nH]2)c(C)c1 (stereo not drawn)", "%", 22),
    ("COc1cc(C)c(S(=O)(=O)N(C)Cc2nc3c(C(=O)N4CCC5(CC4)CCN(c4ccncc4)CC5)cccc3s2)c(C)c1", "%", 95),
    ("COc1cc(C)c(S(=O)(=O)N(C)Cc2nc3cccc(C(=O)N4CCC5(CCC(Oc6ccncc6)CC5)CC4)c3[nH]2)c(C)c1", "%", 99),
    ("COc1cc(C)c(S(=O)(=O)N(C)C(C)c2nc3cccc(C(=O)N4CCC5(CCN(Cc6c(F)cccc6Cl)CC5)CC4)c3[nH]2)c(C)c1 (stereo not drawn)", "%", 49),
    ("COc1cc(C)c(S(=O)(=O)N(C)C(C)c2nc3cccc(C(=O)N4CCC5(CCN(Cc6cccnc6)CC5)CC4)c3[nH]2)c(C)c1 (stereo not drawn)", "%", 96),
]

* * *

- TEST_TARGET: B1R receptor of the rat (rB1R) (Rattus norvegicus)
- Construct: expressed in transfected cells; host or cells: CHO K1 cells
- Sequence (P97583 whole entry): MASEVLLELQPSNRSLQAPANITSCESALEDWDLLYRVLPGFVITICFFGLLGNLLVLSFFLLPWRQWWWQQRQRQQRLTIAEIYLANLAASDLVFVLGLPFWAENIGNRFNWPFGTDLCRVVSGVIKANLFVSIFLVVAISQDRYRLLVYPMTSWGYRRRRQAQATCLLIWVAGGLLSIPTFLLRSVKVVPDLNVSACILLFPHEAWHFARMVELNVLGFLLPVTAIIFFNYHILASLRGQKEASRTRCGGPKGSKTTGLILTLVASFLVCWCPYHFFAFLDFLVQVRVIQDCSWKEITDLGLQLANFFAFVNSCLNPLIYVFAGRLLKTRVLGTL
- RUN_DESCRIPTION: Functional investigation on the bradykinin receptor 1 (B1R), FLIPR Ca2+ assay, rB1R cells
- Assay type: cell-based

# COMPOUND, inhibition at 10 µM, %
rows = [
    ("COc1cc(C)c(S(=O)(=O)N(C)c2nc3ccc(C(=O)N4CCC5(CC4)CCN(c4ccncc4)CC5)cc3n2C)c(C)c1", 56),
    ("COc1cc(C)c(S(=O)(=O)N(C)C(C)c2nc3cccc(C(=O)N4CCC5(CCN(Cc6c[nH]cn6)CC5)CC4)c3[nH]2)c(C)c1 (stereo not shown)", 103),
    ("COc1cc(C)c(S(=O)(=O)N(C)C(C)c2nc3cccc(C(=O)N4CCC5(CCN(Cc6ccc(C#N)cc6)CC5)CC4)c3[nH]2)c(C)c1 (stereo not shown)", 98),
    ("COc1cc(C)c(C(=O)N(C)Cc2nc3cccc(C(=O)N4CCC5(CC4)CCN(c4ccncc4)CC5)c3[nH]2)c(C)c1", 105),
    ("COc1cc(C)c(S(=O)(=O)N(C)C(C)c2nc3cccc(C(=O)N4CCC5(CCN(Cc6cncn6C)CC5)CC4)c3[nH]2)c(C)c1 (stereo not shown)", 100),
    ("CN(Cc1nc2cccc(C(=O)N3CCC4(CC3)CCN(c3ccncc3)C4)c2[nH]1)C(=O)c1ccccc1Cl", 64),
    ("COc1cc(C)c(S(=O)(=O)N(C)C(C)c2nc3cccc(C(=O)N4CCC5(CCN(Cc6cnn(C)c6C)CC5)CC4)c3[nH]2)c(C)c1 (stereo not shown)", 98),
    ("COc1cc(C)c(S(=O)(=O)N(C)C(C)c2nc3cccc(C(=O)N4CCC5(CC4)CCN(S(=O)(=O)c4cccc6c4ccn6C)CC5)c3[nH]2)c(C)c1 (stereo not shown)", 101),
    ("CN(Cc1nc2ccc(C(=O)N3CCC4(CC3)CCN(c3ccncc3)CC4)cc2[nH]1)S(=O)(=O)c1ccccc1C(F)(F)F", 102),
    ("COc1cc(C)c(S(=O)(=O)N(C)c2nc3cccc(C(=O)N4CCC5(CC4)CCN(c4ccncc4)C5)c3n2C)c(C)c1", 99),
    ("COc1cc(C)c(S(=O)(=O)N(C)C(C)c2nc3cccc(C(=O)N4CCC5(CCN(Cc6ccc(F)c(F)c6)CC5)CC4)c3[nH]2)c(C)c1 (stereo not shown)", 99),
    ("Cc1cccc(Cl)c1S(=O)(=O)N(C)Cc1nc2ccc(C(=O)N3CCC4(CC3)CCN(c3ccncc3)CC4)cc2[nH]1", 101),
    ("COc1cc(C)c(S(=O)(=O)N(C)C(C)c2nc3cccc(C(=O)N4CCC5(CCN(C(=O)c6cnccn6)CC5)CC4)c3[nH]2)c(C)c1 (stereo not shown)", 90),
]

* * *

- TEST_TARGET: human B1R receptor (hB1R) (Homo sapiens)
- Construct: expressed in transfected cells; host or cells: CHO K1 cells
- RUN_DESCRIPTION: Functional investigation on the bradykinin receptor 1 (B1R), FLIPR Ca2+ assay, hB1R cells
- Type: cell-based
Where a name gives a salt, the structure may show the parent alone.
MEASURE_NAME: inhibition at 10 µM

# COMPOUND, MEASURE_NAME, MEASURED_VALUE
rows = [
    ("COc1cc(C)c(S(=O)(=O)N(C)C(C)c2nc3cccc(C(=O)N4CCC5(CCN(Cc6c(F)cccc6OC)CC5)CC4)c3[nH]2)c(C)c1 (stereo not shown)", "inhibition at 10 µM", "91%"),
    ("COc1cc(C)c(S(=O)(=O)N(C)C(C)c2nc3cccc(C(=O)N4CCC5(CCN(Cc6ccccc6C#N)CC5)CC4)c3[nH]2)c(C)c1 (stereo not shown)", "inhibition at 10 µM", "81%"),
    ("COc1cc(C)c(S(=O)(=O)N(C)C(C)c2nc3cccc(C(=O)N4CCC5(CCN(Cc6ccc(F)cc6F)CC5)CC4)c3[nH]2)c(C)c1 (stereo not shown)", "inhibition at 10 µM", "71%"),
    ("COc1cc(C)c(S(=O)(=O)N(C)Cc2nc3cccc(CC(=O)N4CCC5(CC4)CCN(c4ccncc4)CC5)c3[nH]2)c(C)c1", "inhibition at 10 µM", "99%"),
    ("COc1cc(C)c(S(=O)(=O)N2CCCC2c2nc3cccc(C(=O)N4CCC5(CC4)CCN(c4ccncc4)CC5)c3[nH]2)c(C)c1 (stereo not shown)", "inhibition at 10 µM", "100%"),
    ("CN(Cc1nc2ccc(C(=O)N3CCC4(CC3)CCN(c3ccncc3)CC4)cc2[nH]1)S(=O)(=O)c1ccccc1C(F)(F)F", "inhibition at 10 µM", "100%"),
    ("COc1cc(C)c(S(=O)(=O)N(C)C(C)c2nc3cccc(C(=O)N4CCC5(CCN(C(=O)c6ccc(F)cc6Cl)CC5)CC4)c3[nH]2)c(C)c1 (stereo not shown)", "inhibition at 10 µM", "77%"),
    ("COc1cc(C)c(S(=O)(=O)N(C)C(C)c2nc3cccc(C(=O)N4CCC5(CCN(Cc6cc(F)ccc6F)CC5)CC4)c3[nH]2)c(C)c1 (stereo not shown)", "inhibition at 10 µM", "63%"),
    ("COc1cc(C)c(S(=O)(=O)N(C)C2(c3nc4cccc(C(=O)N5CCC6(CC5)CCN(c5ccncc5)CC6)c4[nH]3)CC2)c(C)c1", "inhibition at 10 µM", "98%"),
    ("COc1cc(C)c(S(=O)(=O)N(C)C(C)c2nc3cccc(C(=O)N4CCC5(CCN(Cc6ccc(C#N)cc6)CC5)CC4)c3[nH]2)c(C)c1 (stereo not shown)", "inhibition at 10 µM", "85%"),
    ("COc1cc(C)c(S(=O)(=O)N(C)Cc2nc3cccc(C(=O)N4CCC5(CC4)CCN(c4ccncc4)CC5)c3[nH]2)c(C)c1", "inhibition at 10 µM", "100%"),
    ("COc1cc(C)c(S(=O)(=O)N(C)C(C)c2nc3cccc(C(=O)N4CCC5(CCN(Cc6c[nH]c(C)n6)CC5)CC4)c3[nH]2)c(C)c1 (stereo not shown)", "inhibition at 10 µM", "80%"),
    ("COc1cc(C)c(S(=O)(=O)N(C)C(C)c2nc3cccc(C(=O)N4CCC5(CC4)CCN(C(=O)C4CC4)CC5)c3[nH]2)c(C)c1 (stereo not shown)", "inhibition at 10 µM", "62%"),
    ("Cc1ccc(Cl)c(S(=O)(=O)N(C)Cc2nc3cccc(C(=O)N4CCC5(CC4)CCN(c4ccncc4)CC5)c3[nH]2)c1Cl", "inhibition at 10 µM", "95%"),
    ("COc1cc(C)c(S(=O)(=O)N(C)C(C)c2nc3cccc(C(=O)N4CCC5(CCN(C(=O)CC(C)(C)C)CC5)CC4)c3[nH]2)c(C)c1 (stereo not shown)", "inhibition at 10 µM", "78%"),
    ("COc1cc(C)c(S(=O)(=O)N(C)c2nc3ccc(C(=O)N4CCC5(CC4)CCN(c4ccncc4)CC5)cc3n2C)c(C)c1", "inhibition at 10 µM", "71%"),
    ("O=C1c2c(Cl)cccc2CN1Cc1nc2cccc(C(=O)N3CCC4(CC3)CCN(c3ccncc3)C4)c2[nH]1", "inhibition at 10 µM", "71%"),
    ("COc1cc(C)c(S(=O)(=O)N(C)C(C)c2nc3cccc(C(=O)N4CCC5(CC4)CCN(S(=O)(=O)c4ccccc4C#N)CC5)c3[nH]2)c(C)c1 (stereo not shown)", "inhibition at 10 µM", "20%"),
    ("Cc1cc(S(=O)(=O)N(C)Cc2nc3cccc(C(=O)N4CCC5(CC4)CCN(c4ccncc4)C5)c3[nH]2)c(C)cc1Cl", "inhibition at 10 µM", "94%"),
    ("COc1cc(C)c(S(=O)(=O)N(C)C(C)c2nc3cccc(C(=O)N4CCC5(CC4)CCN(c4ccncc4)CC5)c3[nH]2)c(C)c1 (stereo not shown)", "inhibition at 10 µM", "94%"),
    ("CN(Cc1nc2cccc(C(=O)N3CCC4(CC3)CCN(c3ccncc3)CC4)c2[nH]1)S(=O)(=O)c1ccc(OC(F)(F)F)cc1Cl [I_11, hydrochloride]", "inhibition at 10 µM", "99%"),
    ("COc1cc(C)c(S(=O)(=O)N(C)C(C)c2nc3cccc(C(=O)N4CCC5(CCN(Cc6ccc(OC)c(F)c6)CC5)CC4)c3[nH]2)c(C)c1 (stereo not shown)", "inhibition at 10 µM", "80%"),
    ("COc1cc(C)c(S(=O)(=O)N(C)Cc2nc3ccc(F)c(C(=O)N4CCC5(CC4)CCN(c4ccncc4)CC5)c3[nH]2)c(C)c1", "inhibition at 10 µM", "98%"),
    ("COc1cc(C)c(S(=O)(=O)N2CCCCC2c2nc3cccc(C(=O)N4CCC5(CC4)CCN(c4ccncc4)CC5)c3[nH]2)c(C)c1 (stereo not shown)", "inhibition at 10 µM", "97%"),
    ("COc1cc(C)c(S(=O)(=O)N(C)Cc2nc3c(C(=O)N4CCC5(CC4)CCN(c4ccncc4)C5)cccc3s2)c(C)c1", "inhibition at 10 µM", "93%"),
]
